Numbers sourced from ChEMBL document CHEMBL2021777.

Target: Neuronal acetylcholine receptor; alpha4/beta2 (Homo sapiens, UniProt P17787+P43681)
Assay: Agonist activity at human high sensitive and low sensitive alpha4beta2 nAChR expressed in SH-EP1 cells assessed as 86Rb+ ion efflux by flip-plate technique relative to sazetidine-A
Assay type: functional, cell-based

{"structureAsSmiles": "OCC[C@@H]1C[C@H]1c1cncc(OC[C@@H]2CCN2)c1", "Efficacy": "10%"}
{"structureAsSmiles": "COCC[C@H]1C[C@@H]1c1cncc(OC[C@@H]2CCN2)c1", "Efficacy": "6%"}
{"structureAsSmiles": "OCCCCC#Cc1cncc(OC[C@@H]2CCN2)c1", "Efficacy": "55%"}
{"structureAsSmiles": "OCC[C@H]1C[C@@H]1c1cncc(OC[C@@H]2CCN2)c1", "Efficacy": "21%"}
{"structureAsSmiles": "CNC(=O)OCC[C@H]1C[C@@H]1c1cncc(OC[C@@H]2CCN2)c1", "Efficacy": "17%"}
{"structureAsSmiles": "O=C(OCC[C@H]1C[C@@H]1c1cncc(OC[C@@H]2CCN2)c1)N1CCCC1", "Efficacy": "23%"}
{"structureAsSmiles": "COCC[C@@H]1C[C@H]1c1cncc(OC[C@@H]2CCN2)c1", "Efficacy": "8%"}
{"structureAsSmiles": "CN(C)C(=O)OCC[C@H]1C[C@@H]1c1cncc(OC[C@@H]2CCN2)c1", "Efficacy": "15%"}
{"structureAsSmiles": "O=C(NC1CC1)OCC[C@H]1C[C@@H]1c1cncc(OC[C@@H]2CCN2)c1", "Efficacy": "27%"}
{"structureAsSmiles": "O=C(Nc1ccccc1)OCC[C@H]1C[C@@H]1c1cncc(OC[C@@H]2CCN2)c1", "Efficacy": "24%"}
